Kindly state absorbance at 450 nm for each of the entries shown.
Biological target: T1, fragment DIR-II (last 27 amino acids of the sequence encoded by the retained intron of DIR) (human)
T1 construct: also called target fragment DIR-II
T1 peptide: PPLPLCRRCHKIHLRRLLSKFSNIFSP
Test: ELISA, DIR-II coated; mAb (1 mg/mL) diluted 1:54k

Example entries and their recorded answers appear below.
{"BINDER": "DIR antibody IR-II-6 (antibody, V domains shown, Monoclonal antibody; also called detection antibody) VH: QVQLQQSGAELMKPGASVKISCKATGYTFSRYWIEWIKQRPGHGLEWIGEILPGSYYSTNSNEKFKGKATFTADTSSNTAYMQLSSLTSEDSAVYYCARSGVITTRGDYFAMDYWGHGTSVTVSS VL: DIVLTQSPASLAVSLGQRATISCKASQSVDYDGDSYMNWYQQKPGQPPKLLMYAASNLESGIPARFSGSGSGTDFTLNIHPVEEEDAATYYCQQSNEDPRTFGGGTKLEIK", "absorbance at 450 nm": "0.78 absorbance (450 nm)"}
{"BINDER": "DIR antibody IR-II-5 (antibody, V domains shown, Monoclonal antibody) VH: QVQLQQSGAEVMKPGASVKISCKATGYTFSSYWIEWIKQRPGHGLEWIGEILPGGYNTNSNENFKGKATFTADTSSNTAYMQLSSLTSEDSAVYYCARSGMITTTGDYYAMDYWGQGTSVTVSS VL: DIELTQSPASLAVSLGQRATISCKASQSVDYDGESYMNWYQQKPGQPPKLLIYAASNLESGIPARFSGSGSGTDFTLNIHPVEEEDAATYYCQQSNDDPRTFGGGTKLEIK", "absorbance at 450 nm": "0.159 absorbance (450 nm)"}
{"BINDER": "DIR antibody IR-II-9 (antibody, V domains shown, Monoclonal antibody) VH: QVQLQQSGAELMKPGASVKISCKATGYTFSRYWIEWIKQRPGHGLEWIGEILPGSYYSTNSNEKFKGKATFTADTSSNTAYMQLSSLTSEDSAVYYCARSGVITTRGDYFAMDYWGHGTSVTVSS VL: DIELTQSPASLAVSLGQRATISCKASQSVDYDGESYMNWYQQKPGQPPKLLIYAASNLESGIPARFSGSGSGTDFTLNIHPVEEEDAATYYCQQSYDDPRAFGGGTKLEIK", "absorbance at 450 nm": "0.622 absorbance (450 nm)"}

With those in mind, consider the next binder.
Query DIR antibody IR-II-2 (antibody, V domains shown, Monoclonal antibody) VH: EVQLQQSGAELMKPGASVKISCKATGYTFSSYWIEWVKQRPGHGLEWIGEILPGSGTTNYNEKFKGKATFTVDTSSNTAYMQLSSLTSEDSAVYYCARSGVITARGDYYAMDYWGQGTSVTVSS VL: DIVMTQSPASLAVSLGQRATISCKASQSVDYDGDSYMNWYQQKPGQPPKLLIYAASNLDSGIPARFSGSGSGTDFTLNIHPVEEEDAATYYCQQSNEDPRTFGGGTKLEIK yields absorbance at 450 nm of 0.193 absorbance (450 nm)

Data origin: patent US20250060376A1
